Source: patent US20140315889A1

assayed system: human recombinant HDAC6 (Homo sapiens, UniProt Q9UBN7)
Construct: purchased Calibiochem Co. (so in the source) 382180
Sequence (Q9UBN7 1-1215): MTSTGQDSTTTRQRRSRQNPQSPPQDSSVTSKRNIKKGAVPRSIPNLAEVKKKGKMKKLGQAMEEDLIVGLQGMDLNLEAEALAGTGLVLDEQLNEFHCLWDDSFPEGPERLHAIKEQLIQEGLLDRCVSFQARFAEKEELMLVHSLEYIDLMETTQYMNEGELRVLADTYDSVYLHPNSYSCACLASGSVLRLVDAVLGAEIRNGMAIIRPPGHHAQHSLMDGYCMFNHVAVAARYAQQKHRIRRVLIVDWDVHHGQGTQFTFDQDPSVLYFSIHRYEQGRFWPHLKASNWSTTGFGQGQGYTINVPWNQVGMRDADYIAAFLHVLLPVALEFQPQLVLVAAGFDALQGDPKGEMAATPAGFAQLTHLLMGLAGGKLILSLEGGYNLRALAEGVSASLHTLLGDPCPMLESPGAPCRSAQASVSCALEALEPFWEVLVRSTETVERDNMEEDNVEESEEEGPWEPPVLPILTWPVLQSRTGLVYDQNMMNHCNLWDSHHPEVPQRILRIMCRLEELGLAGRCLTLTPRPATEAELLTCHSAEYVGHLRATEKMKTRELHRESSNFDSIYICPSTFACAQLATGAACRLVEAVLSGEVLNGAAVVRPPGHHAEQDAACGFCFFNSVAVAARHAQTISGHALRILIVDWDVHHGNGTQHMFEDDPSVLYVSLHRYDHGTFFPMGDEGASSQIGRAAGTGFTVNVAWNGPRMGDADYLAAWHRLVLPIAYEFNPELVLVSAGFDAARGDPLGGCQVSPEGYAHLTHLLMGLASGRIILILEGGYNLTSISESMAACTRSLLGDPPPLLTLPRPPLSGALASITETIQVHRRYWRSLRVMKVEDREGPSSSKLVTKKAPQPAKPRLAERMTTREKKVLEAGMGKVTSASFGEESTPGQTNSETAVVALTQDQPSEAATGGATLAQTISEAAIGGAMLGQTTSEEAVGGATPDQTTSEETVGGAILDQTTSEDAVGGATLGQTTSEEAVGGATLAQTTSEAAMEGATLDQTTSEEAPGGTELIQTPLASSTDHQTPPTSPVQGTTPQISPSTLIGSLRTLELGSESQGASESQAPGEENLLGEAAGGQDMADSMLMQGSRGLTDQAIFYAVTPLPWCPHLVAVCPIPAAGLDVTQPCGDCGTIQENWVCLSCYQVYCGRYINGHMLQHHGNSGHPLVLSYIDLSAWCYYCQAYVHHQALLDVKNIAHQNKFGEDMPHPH
assay remarks: HDAC enzyme activity test, HDAC6
Format: biochemical
details: Table 12; read-out: Inhibition ability (IC50) HDAC6
// values below are reported log10 IC50
measured metric: log10 IC50 (log10 of the value in µM)

Cc1nccn1CC1C(=O)c2c(n(Cc3ccc(C(=O)NO)cc3)c3ccccc23)CC1(C)C (stereo not shown): -1.45
CC1(C)CC(=O)c2c(n(CCCCCC(=O)NO)c3c(Cl)ccc(Cl)c23)C1: -0.84
Cc1cc2c(n1CCCCCCC(=O)NO)CC(C)(C)CC2=O: -1.57
O=C(NO)c1ccc(Cn2c3c(c4ccccc42)C(=O)N(CCN2CCC[C@H]2CO)CC3)cc1: -2.47
CC1(C)CC(=O)c2c(n(CCCCCCC(=O)NO)c3c(Br)cccc23)C1: -1.62
CC1(C)CC(=O)c2c(n(Cc3ccc(C(=O)NO)cc3)c3ccc(Br)cc23)C1: -0.89
O=C(CCCCCn1c2c(c3cc(F)ccc31)C(=O)C(CN1CCOCC1)CC2)NO (stereo not shown): -0.96
CCCCN1CCN(CC2CCc3c(c4ccccc4n3CCCCCC(=O)NO)C2=O)CC1 (stereo not shown): -2.72
CC1CN(CC2CCc3c(c4cc(F)ccc4n3CCCCCC(=O)NO)C2=O)CC(C)O1 (stereo not shown): -1.06
CN1CCCN(CCN2CCc3c(c4cc(F)ccc4n3Cc3ccc(C(=O)NO)cc3)C2=O)CC1: -1.73
